# system: FP receptor (Homo sapiens (Human), UniProt P43088)
# Sequence (P43088 whole entry): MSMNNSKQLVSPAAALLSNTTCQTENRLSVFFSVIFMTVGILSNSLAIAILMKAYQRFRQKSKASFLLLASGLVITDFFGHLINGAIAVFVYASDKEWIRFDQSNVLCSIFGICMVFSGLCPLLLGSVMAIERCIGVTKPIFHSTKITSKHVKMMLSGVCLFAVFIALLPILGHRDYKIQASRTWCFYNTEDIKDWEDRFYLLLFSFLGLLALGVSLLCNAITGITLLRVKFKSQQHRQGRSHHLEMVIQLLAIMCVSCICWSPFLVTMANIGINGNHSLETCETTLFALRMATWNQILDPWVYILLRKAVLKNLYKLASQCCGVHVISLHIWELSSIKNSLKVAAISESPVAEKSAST
# assay.protocol: In vitro test of inhibition of human FP receptor activity (PGF2α-induced calcium flux in FP-expressing CHEM1 cells)
# condition.label: PGF2α-induced (2 nM) calcium flux in FP-expressing CHEM1 cells; some as mean values from multiple determinations
pIC50: −log10 of the molar value.
Measured pIC50 values are reported for all entries that follow.

- molecule: "Cc1c(-c2ccccc2)nc2ccc(Br)cc2c1C(=O)NCC(CC(=O)O)c1ccccn1 (racemic) [Example 102]"
  bound.type: "="
  pIC50: 6.34
- molecule: "Cc1c(-c2ccccc2)nc2ccc(Br)cc2c1C(=O)NCC(C)(C(=O)O)c1ccccc1 (racemic) [Example 13]"
  bound.type: "="
  pIC50: 7.03
- molecule: "Cc1c(-c2ccccc2)nc2ccc(Br)cc2c1C(=O)NCC(C)(C(=O)O)c1ccccc1 (single isomer, unassigned; (+)) [Example 15]"
  bound.type: "="
  pIC50: 6.72
- molecule: "COc1ccc(F)cc1C(C)(CNC(=O)c1c(C)c(-c2ccccc2)nc2ccc(Br)cc12)CC(=O)O (racemic) [Example 132]"
  bound.type: "="
  pIC50: 7.49
- molecule: "Cc1c(-c2ccccc2)nc2ccc(Br)cc2c1C(=O)NCC(CCC(=O)O)c1c(F)cccc1F (racemic) [Example 181]"
  bound.type: "="
  pIC50: 8.04
- molecule: "COc1ccccc1C(C)(CNC(=O)c1c(C)c(-c2ccccc2)nc2ccc(Br)cc12)C(=O)O (single isomer, unassigned; (+)) [Example 60]"
  bound.type: "="
  pIC50: 6.92
- molecule: "Cc1c(-c2ccccc2)nc2ccc(Br)cc2c1C(=O)NCC(C(=O)O)c1cccc(Cl)c1 (racemic) [Example 47]"
  bound.type: "="
  pIC50: 7.37
- molecule: "Cc1ccccc1C(CCC(=O)O)CNC(=O)c1c(C)c(-c2ccccc2)nc2ccc(Br)cc12 (single isomer, unassigned; (+)) [Example 162]"
  bound.type: "="
  pIC50: 7.48
- molecule: "Cc1c(-c2ccccc2)nc2ccc(Br)cc2c1C(=O)NCC(CCC(=O)O)c1cccc(F)c1Cl (single isomer, unassigned; (+)) [Example 186]"
  bound.type: "="
  pIC50: 7.77
- molecule: "Cc1c(-c2ccccc2)nc2ccc(Br)cc2c1C(=O)NCC(CC(=O)O)c1ccc(Cl)cc1 (single isomer, unassigned; (+)) [Example 67]"
  bound.type: "="
  pIC50: 6.43
- molecule: "Cc1c(-c2ccccc2)nc2ccc(Br)cc2c1C(=O)NCC(CC(=O)O)c1c(Cl)cccc1Cl (single isomer, unassigned) [Example 80]"
  bound.type: "="
  pIC50: 7.29
- molecule: "Cc1c(-c2ccccc2)nc2ccc(Br)cc2c1C(=O)NC(C)C(CC(=O)O)c1ccccc1Cl (single isomer, unassigned; (-)) [Example 146]"
  bound.type: "<"
  pIC50: 6.00
- molecule: "Cc1c(-c2ccccc2)nc2ccc(Br)cc2c1C(=O)NCC(F)(C(=O)O)c1ccccc1 (single isomer, unassigned; (-)) [Example 39]"
  bound.type: "="
  pIC50: 6.85
